- Target Or Test System: human GlyT1c transporter (Homo sapiens)
- Construct: expressed in transfected cells; host or cells: CHO cells (recombinant; membranes)
- Test: Radioligand binding assay using recombinant CHO cell membranes expressing human GlyT1
- Measurement Parameters: values given as upper bounds, read-out: radioligand binding Kiapp
Observed Property: Ki

Identify measured Ki associated with CCS(=O)(=O)NCc1ccc2c(c1)C(Cc1ccccc1)C(N1CCC1)CO2 (centres unmarked)
≤ 1 µM

For the compound CCCN[C@@H]1COc2ccc(CNS(=O)(=O)c3cn(C)cn3)cc2[C@@H]1Cc1ccccc1 (relative stereo) [Example 35, 2,2,2-trifluoroacetate] , give its measured Ki value.
≤ 0.01 µM

# return recorded Ki for entry CCS(=O)(=O)NCc1ccc2c(c1)[C@H](Cc1ccccc1)[C@H](N)CO2 (relative stereo)
≤ 0.1 µM

---

Attribute: Ki
- Target Or Test System: human GlyT1c transporter (Homo sapiens, UniProt P48067)
- Construct: membranes)
- Sequence (P48067 1-706): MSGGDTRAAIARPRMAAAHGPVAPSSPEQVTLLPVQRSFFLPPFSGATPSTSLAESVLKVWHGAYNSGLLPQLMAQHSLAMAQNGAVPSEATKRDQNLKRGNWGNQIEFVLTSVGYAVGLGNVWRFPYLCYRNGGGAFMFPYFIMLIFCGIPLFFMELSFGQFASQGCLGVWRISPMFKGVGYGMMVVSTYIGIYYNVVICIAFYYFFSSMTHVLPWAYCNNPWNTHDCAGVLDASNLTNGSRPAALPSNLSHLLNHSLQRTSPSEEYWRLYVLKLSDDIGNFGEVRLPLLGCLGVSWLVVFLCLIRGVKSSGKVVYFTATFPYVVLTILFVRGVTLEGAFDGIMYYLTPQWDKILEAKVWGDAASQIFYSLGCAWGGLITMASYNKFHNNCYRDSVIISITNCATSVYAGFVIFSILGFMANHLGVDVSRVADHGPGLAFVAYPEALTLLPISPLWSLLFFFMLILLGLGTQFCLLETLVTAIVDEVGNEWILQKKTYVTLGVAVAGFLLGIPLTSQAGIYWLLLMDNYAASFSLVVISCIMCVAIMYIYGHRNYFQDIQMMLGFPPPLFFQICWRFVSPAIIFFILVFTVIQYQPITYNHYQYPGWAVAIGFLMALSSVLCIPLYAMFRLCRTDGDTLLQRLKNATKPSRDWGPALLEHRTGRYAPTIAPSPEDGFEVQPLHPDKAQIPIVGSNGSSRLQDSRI
- Test: Radioligand binding assay using recombinant CHO cell membranes expressing human GlyT1
- Measurement Parameters: values given as upper bounds, read-out: radioligand binding Kiapp

>  <Molecule>
CN[C@@H]1COc2cc(F)c(CNS(=O)(=O)c3cn(C)cn3)cc2[C@H]1Cc1ccccc1 (relative stereo)

>  <Ki>
≤ 10 nM

$$$$
>  <Molecule>
CN[C@@H]1COc2ccc(CNS(=O)(=O)c3cnn(C)c3)cc2[C@@H]1Cc1ccccc1 (relative stereo)

>  <Ki>
≤ 10 nM

$$$$

Tell us which Ki value is on record for Cn1cnc(S(=O)(=O)NCCOc2ccc3c(c2)C(Cc2ccccc2)C(N2CCC2)CO3)c1 (single isomer, unassigned; isomer 2)
≤ 10 nM

---

Listing of entries alongside the reported Ki.
- Target Or Test System: human GlyT1c transporter (Homo sapiens, UniProt P48067)
- Construct: membranes)
- Test: Radioligand binding assay using recombinant CHO cell membranes expressing human GlyT1
- Measurement Parameters: values given as upper bounds, read-out: radioligand binding Kiapp

>  <Molecule>
CCC(C)S(=O)(=O)NCc1ccc2c(c1)C(Cc1ccccc1)C(N)CO2 (stereo not drawn) [Example 47, 2,2,2-trifluoroacetate]

>  <Ki>
≤ 100 nM

$$$$
>  <Molecule>
CCn1cc(S(=O)(=O)NCc2ccc3c(c2)C(Cc2ccccc2)C(N)CO3)cn1 (stereo not drawn) [Example 57, 2,2,2-trifluoroacetate]

>  <Ki>
≤ 1000 nM

$$$$
>  <Molecule>
Cn1cnc(S(=O)(=O)NCc2ccc3c(c2)[C@@H](Cc2ccccc2)[C@@H](NCC2CCCCC2)CO3)c1 (relative stereo) [Example 22]

>  <Ki>
≤ 10 nM

$$$$
>  <Molecule>
CCCS(=O)(=O)NCc1ccc2c(c1)C(Cc1ccccc1)C(N1CCC1)CO2 (stereo not drawn) [Example 20]

>  <Ki>
≤ 100 nM

$$$$
>  <Molecule>
N[C@@H]1COc2ccc(CNS(=O)(=O)CC3CC3)cc2[C@H]1Cc1ccccc1 (relative stereo) [Example 68]

>  <Ki>
≤ 100 nM

$$$$

Give the reported value of Ki for this record: Cn1cc(S(=O)(=O)NCCOc2ccc3c(c2)[C@H](Cc2ccccc2)[C@H](N2CCC2)CO3)cn1 (relative stereo) [Example 16]
≤ 10 nM

// fetch Ki given entry Cn1cnc(S(=O)(=O)NCc2ccc3c(c2)[C@H](Cc2ccccc2)[C@H](NCC(C)(C)C)CO3)c1 (relative stereo) [Example 36, 2,2,2-trifluoroacetate]
≤ 100 nM

Return Ki (reported value) for this molecule: Cn1cnc(S(=O)(=O)NCCOc2ccc3c(c2)[C@H](Cc2ccccc2)[C@H](N2CCC2)CO3)c1 (relative stereo) [Example 10]
≤ 10 nM

Return Ki (reported value) for this molecule: Cn1cc(S(=O)(=O)NCc2ccc3c(c2)[C@H](Cc2ccccc2)[C@H](N2CCCC2)CO3)cn1 (relative stereo) [Example 66]
≤ 10 nM

---

- Target Or Test System: human GlyT1c transporter (Homo sapiens, UniProt P48067)
- Construct: membranes)
- Test: Radioligand binding assay using recombinant CHO cell membranes expressing human GlyT1
- Measurement Parameters: values given as upper bounds, read-out: radioligand binding Kiapp
Observed Property: Ki

# example entries with known answers
>  <Compound>
CC(C)CN[C@@H]1COc2ccc(CNS(=O)(=O)c3cn(C)cn3)cc2[C@@H]1Cc1ccccc1 (relative stereo) [Example 37, 2,2,2-trifluoroacetate]

>  <Ki>
≤ 10 nM

$$$$
>  <Compound>
CCS(=O)(=O)NCc1ccc2c(c1)[C@@H](Cc1ccccc1)[C@H](N)CO2 (relative stereo)

>  <Ki>
≤ 100 nM

$$$$

Shifting focus to the compound that follows.
Answer with the recorded Ki for the compound listed here: Cc1cc(S(=O)(=O)NCc2ccc3c(c2)C(Cc2ccccc2)C(N)CO3)n(C)n1 (stereo not drawn) [Example 55, 2,2,2-trifluoroacetate]
≤ 10000 nM

---

- Target Or Test System: human GlyT1c transporter (Homo sapiens, UniProt P48067)
- Construct: expressed in transfected cells; host or cells: CHO cells (recombinant; membranes)
- Test: Radioligand binding assay using recombinant CHO cell membranes expressing human GlyT1
- Measurement Parameters: values given as upper bounds, read-out: radioligand binding Kiapp
pKi: −log10 of the molar value.
pKi values for the compounds below.

>  <Compound>
Cn1ccc(S(=O)(=O)NCc2ccc3c(c2)C(Cc2ccccc2)C(N)CO3)n1 (centres unmarked) [Example 46, 2,2,2-trifluoroacetate]

>  <Target Or Test System>
human GlyT1c transporter (Homo sapiens, UniProt P48067)

>  <pKi>
≥ 6.00

$$$$
>  <Compound>
CCCS(=O)(=O)NCc1ccc2c(c1)[C@H](Cc1ccccc1)[C@H](NC)CO2 (relative stereo) [Example 7a]

>  <Target Or Test System>
human GlyT1c transporter (Homo sapiens, UniProt P48067)

>  <pKi>
≥ 8.00

$$$$

Check the records and state pKi for CN[C@@H]1COc2cc(F)c(CNS(=O)(=O)c3cn(C)cn3)cc2[C@@H]1Cc1ccccc1 (relative stereo) [Example 31]
≥ 7.00

Determine from records and report pKi for CN[C@@H]1COc2ccc(CNS(=O)(=O)CC3CC3)cc2[C@@H]1Cc1ccccc1 (relative stereo) [Example 8a]
≥ 8.00

---

- Target Or Test System: MDR1 (P-gp) (Homo sapiens, UniProt P08183)
- Construct: expressed in transfected cells; host or cells: Madin-Darby Canine Kidney Type II cells (MDR1-MDCK)
- Sequence (P08183 whole entry, species assumed): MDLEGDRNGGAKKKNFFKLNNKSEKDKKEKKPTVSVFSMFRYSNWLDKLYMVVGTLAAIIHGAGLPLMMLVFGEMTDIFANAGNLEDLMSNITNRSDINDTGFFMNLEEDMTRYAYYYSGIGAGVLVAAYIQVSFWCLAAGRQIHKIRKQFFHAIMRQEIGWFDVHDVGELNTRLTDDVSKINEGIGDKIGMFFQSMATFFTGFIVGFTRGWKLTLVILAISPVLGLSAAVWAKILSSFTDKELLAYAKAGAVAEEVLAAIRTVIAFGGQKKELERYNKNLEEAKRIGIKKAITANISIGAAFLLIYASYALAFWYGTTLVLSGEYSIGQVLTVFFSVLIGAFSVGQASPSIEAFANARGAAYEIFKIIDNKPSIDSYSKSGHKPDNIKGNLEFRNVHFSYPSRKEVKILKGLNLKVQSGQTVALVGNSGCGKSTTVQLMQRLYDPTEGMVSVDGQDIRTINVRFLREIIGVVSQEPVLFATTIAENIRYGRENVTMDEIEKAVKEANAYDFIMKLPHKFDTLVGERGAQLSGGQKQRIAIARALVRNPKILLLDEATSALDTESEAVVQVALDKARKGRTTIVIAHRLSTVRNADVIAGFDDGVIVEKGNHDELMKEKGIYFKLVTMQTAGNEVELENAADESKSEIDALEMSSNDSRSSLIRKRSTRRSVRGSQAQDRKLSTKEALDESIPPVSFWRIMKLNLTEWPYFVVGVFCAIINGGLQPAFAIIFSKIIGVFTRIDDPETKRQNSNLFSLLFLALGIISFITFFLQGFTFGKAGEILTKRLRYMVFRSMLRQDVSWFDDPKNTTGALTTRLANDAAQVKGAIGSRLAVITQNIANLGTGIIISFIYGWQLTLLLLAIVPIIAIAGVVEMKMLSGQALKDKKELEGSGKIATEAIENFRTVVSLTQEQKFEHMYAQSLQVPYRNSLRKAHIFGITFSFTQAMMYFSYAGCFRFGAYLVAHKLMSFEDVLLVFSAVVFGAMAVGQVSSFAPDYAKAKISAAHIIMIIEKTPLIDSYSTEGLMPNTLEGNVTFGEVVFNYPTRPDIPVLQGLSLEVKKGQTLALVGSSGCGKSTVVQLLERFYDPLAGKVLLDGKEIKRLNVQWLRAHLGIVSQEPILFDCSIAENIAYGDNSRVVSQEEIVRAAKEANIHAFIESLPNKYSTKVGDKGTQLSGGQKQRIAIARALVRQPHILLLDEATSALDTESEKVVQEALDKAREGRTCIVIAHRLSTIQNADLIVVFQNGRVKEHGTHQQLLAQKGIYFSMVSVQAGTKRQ
- Test: Efflux ratio by bidirectional transport in MDR1-MDCK cells
- Format: in vitro ADME
- Measurement Parameters: dog; MDR1-MDCK monolayers, 1 μM compound, HBSS pH 7.4, 1 h at 37 C; calculated from permeability coefficients
- Protocol: 3. Determination of Efflux Ratio Using Madin-Darby Canine Kidney Type II Cells […] Compounds were added at 1 μM in HBSS-pH 7.4 (hanks balanced salt solution) to either the apical or basolateral side of MDR1-MDCK cell monolayers grown on Millicell 96-Cell polycarbonate filters. […] The efflux ratio was subsequently calculated from the permeability coefficient.
Observed Property: efflux ratio at 1 h, 1 μM
Please give the numeric answer without any surrounding text.

Answer with reported efflux ratio at 1 h, 1 μM of CN[C@@H]1COc2ccc(CNS(=O)(=O)C3CCC3)cc2[C@@H]1Cc1ccccc1 (relative stereo)
1.4

---

- Target Or Test System: human GlyT1c transporter (Homo sapiens, UniProt P48067)
- Construct: membranes)
- Test: Radioligand binding assay using recombinant CHO cell membranes expressing human GlyT1
- Measurement Parameters: values given as upper bounds, read-out: radioligand binding Kiapp
pKi: −log10 of the molar value.
# key: entry, value: pKi

Worked cases, answers included:
>  <Molecule>
CN[C@@H]1COc2ccc(CNS(=O)(=O)CC3CC3)cc2[C@H]1Cc1ccccc1 (relative stereo) [Example 8b]

>  <pKi>
≥ 7.00

$$$$
>  <Molecule>
Cc1nn(C)cc1S(=O)(=O)NCc1ccc2c(c1)C(Cc1ccccc1)C(N)CO2 (centres unmarked) [Example 45, 2,2,2-trifluoroacetate]

>  <pKi>
≥ 5.00

$$$$
>  <Molecule>
CCCS(=O)(=O)NCCOc1ccc2c(c1)[C@H](Cc1ccccc1)[C@H](NC)C(C)(C)O2 (relative stereo) [Example 74]

>  <pKi>
≥ 6.00

$$$$

Give the measured pKi for CCCS(=O)(=O)NCCOc1ccc2c(c1)[C@@H](Cc1ccccc1)[C@H](NC)C(C)(C)O2 (relative stereo) [Example 75]
≥ 6.00

Provide pKi value for the following molecule: CCCS(=O)(=O)NCc1ccc2c(c1)[C@H](Cc1ccccc1)[C@H](N)CO2 (relative stereo) [Example 71]
≥ 7.00

Dear colleague, please send me the reported pKi for CN[C@@H]1COc2ccc(OCCNS(=O)(=O)c3cn(C)cn3)cc2[C@@H]1Cc1ccccc1 (relative stereo) [Example 2a] when you can.
≥ 8.00

Return the recorded pKi value; entry: CC(C)CS(=O)(=O)NCc1ccc2c(c1)C(Cc1ccccc1)C(N)CO2 (centres unmarked) [Example 51, 2,2,2-trifluoroacetate]
≥ 5.00

Determine its reported pKi: CCCS(=O)(=O)NCc1ccc2c(c1)[C@@H](Cc1ccccc1)[C@H](N)CO2 (relative stereo) [Example 72]
≥ 7.00
